experiment-description: Pharmacokinetic study in rats after single oral dose
Assay type: in vivo, male Sprague-Dawley rats
assay-context: male, Sprague-Dawley, rat, plasma, po, 30 mg/kg
value-type: Tmax (min)
Write it as a number; the unit min goes unstated.

Reported Tmax for NC1=NCCN1CC(=O)O : what is it?
34.8

* * *

experiment-description: Pharmacokinetic study in mice after single oral dose
Type: in vivo, male C57BL/6 mice
assay-context: male, C57BL/6, mouse, plasma, po, 30 mg/kg
value-type: Tmax
Record the result as number plus unit.

GET /values?readout=Tmax&item= NC1=NCCN1CC(=O)O [cyclocreatine, 1-Carboxymethyl-2-iminoimidazolidine]
5 h

* * *

experiment-description: Pharmacokinetic study in mice after single oral dose
Assay type: in vivo, male C57BL/6 mice
assay-context: male, C57BL/6 (mice), Sprague-Dawley (rats), mouse, plasma, po, 30 mg/kg
value-type: half-life

Any idea what half-life was measured for NC1=NCCN1CC(=O)O [cyclocreatine, 1-Carboxymethyl-2-iminoimidazolidine] ?
7 to 8 h
